- protocol.text: Plasma pharmacokinetics in rats after oral administration of Yizhi tablets, EPT or EPG (HPLC-ESI/MS)
- Format: in vivo, Sprague-Dawley rats
- measurement.parameters: male, Sprague-Dawley, in vivo; rat plasma, oral EPT 5.4 g/kg, n = 6; read-out: MRT(0–∞) (converted)
readout: MRT inf (h)
Please state the figure in h; there is no need to write the unit.

Given OCc1ccc(O[C@@H]2O[C@H](CO)[C@@H](O)[C@H](O)[C@H]2O)cc1 [GAS, Gastrodin] , state its recorded MRT inf. 2.21

----------
- protocol.text: Plasma pharmacokinetics in rats after oral administration of Yizhi tablets, EPT or EPG (HPLC-ESI/MS)
- Type: in vivo, Sprague-Dawley rats
- measurement.parameters: male, Sprague-Dawley, in vivo; rat plasma, oral EPT 5.4 g/kg, n = 6; read-out: MRT(0–t) (converted)
readout: MRT last (h)
Please state the figure in h; there is no need to write the unit.

Given OCc1ccc(O[C@@H]2O[C@H](CO)[C@@H](O)[C@H](O)[C@H]2O)cc1 [GAS, Gastrodin] , state its recorded MRT last. 2.03

Measured values drawn from paper PMC4281461 for this set.
